Values from the Immune Epitope Database (IEDB)

- assay_target: HLA-A*01:01
- experiment: IEDB peptide-MHC binding, purified MHC/direct/fluorescence; filed as Kd, often an IC50 or EC50 that approximates it; bounds were set here for any values at or beyond the usual limits of such assays
- run_parameters: source organism: Influenza A virus (A/Viet Nam/HN/2004(H5N1))
quantity: Kd

Provide the documented Kd with HLA-A*01:01 as the system for FRNQVKIRR ≥ 20 µM

----------
- assay_target: HLA-B*57:01
- experiment: IEDB peptide-MHC binding, purified MHC/direct/fluorescence; filed as Kd, often an IC50 or EC50 that approximates it; bounds were set here for any values at or beyond the usual limits of such assays
- run_parameters: source organism: Yersinia pestis
quantity: Kd

Can you share its Kd? I mean this sequence: QWSPGPGRL ≥ 20 µM
